- Test system: NCI-H460 lung
- assayDetails: NCI-60 one-dose screen, 48 h
- conditionInfo: 10 µM unless noted
This is part of a sample that, as a whole, favours compounds with a hit. Of some 83,000 tested, about 20% had one in any assay. The source made the active and inactive calls. The calls were made as follows: active = growth percent below 10; inactive = the rest.
Please reply with one of these outcomes: YES = active, NO = inactive

COc1cc(/C=C/c2cc(/C=C/c3ccc(O)c(OC)c3)n(C(=O)Nc3ccc(Cl)cc3)n2)ccc1O    YES

I would be grateful if you could indicate the recorded call for O=C(c1cccc(N2CCOCC2)n1)c1c[nH]c2ccccc12 .
NO

Try COc1ccc2[nH]cc(-c3nonc3-c3c[nH]c4ccc(Br)cc34)c2c1 next.
YES

// repeat for N#CC1=C(N)Oc2c(sc3c(F)cccc23)C1c1ccc([N+](=O)[O-])cc1 (centres undefined) and report
YES

Next record, please: COc1ccc(C(=O)C/C(=C\c2ccc(O)c(OC)c2)C(=O)NN)cc1
NO

----------
- Test system: MDA-MB-435 melanoma
- assayDetails: NCI-60 one-dose screen, 48 h (100 = growth as untreated, 0 = no growth, -100 = all killed)
- conditionInfo: 10 µM unless noted
About 83,000 compounds went through this panel and 20% of them were active in at least one assay; those are over-represented in the sample as a whole. Calls of active or inactive are those of the source. How the source made its calls: active means growth percent below 10; inactive means the rest.
testReadout: growth

Past entries and their recorded results:
COc1ccc(-c2nc(SCC(=O)Nc3nc4ccc(C)cc4s3)[nH]c(=O)c2C#N)cc1OC    101% (inactive)
COc1ccc(/C=N/Nc2c3ccccc3nc3ccccc23)cc1    97% (inactive)
Cc1sc2nc(NCCN)[nH]c(=O)c2c1C    84.9% (inactive)
C=C1C(=O)O[C@@H]2C3C(=C(C)CC[C@@H]12)CC1O[C@]13C (stereo partly specified)    75.5% [6.75 µM] (inactive)
Cc1ccc(C2CC(c3cccc(Nc4ccncc4)c3)=Nc3c(N)nc(N)nc3N2)cc1 (stereo unspecified)    21.7% (inactive)

Can you give me growth for all of these, one by one?
1. O=c1c2ccccc2n(C[C@H]2CO2)c2ccccc12
2. COCCn1cc(-c2nc(-c3cc4cccnc4n3C)cs2)c2ccccc21
3. O=[N+]([O-])c1ccccc1Nc1ccc2ccccc2c1
4. O=C(Cn1nc(-c2cccc3ccccc23)ccc1=O)NCc1cccc(Cl)c1

1: -61.5% (active); 2: 6.84% (active); 3: 99% (inactive); 4: 45.5% [50 µM] (inactive)

Hi, could you look up growth for each item in my list?
1. COc1cc(C[C@H]2COc3cc(O)cc(O)c3C2=O)ccc1O
2. c1ccc2cc(Cn3cc(CSc4nc5ccccc5s4)nn3)ccc2c1
3. CCOC(=O)C1=C(c2ccccc2)N=C2N(c3ccccc3)N=C(C(C)=O)N2C1c1ccc(F)cc1 (stereo unspecified)
4. C=C1SC(=Nc2ccccc2Cl)N(C(=O)c2sc3ccccc3c2Cl)C1(C)C
5. NS(=O)(=O)c1ccc(C(=O)N=Nc2c(O)[nH]c3ccc(Cl)cc23)cc1

1. -22.5% (active)
2. 105% (inactive)
3. 102% (inactive)
4. 99.1% (inactive)
5. 105% (inactive)

Would you mind listing growth for each of the following compounds?
1. CCN(CC)C(=O)CC1=C(C)/C(=C/c2[nH]c(-c3ccc[nH]3)cc2OC)N=C1C
2. COc1ccc(-c2cc(C(=O)N3N=C(c4ccc(N)cc4)CC3c3ccc(Cl)cc3)c3cc(OC)ccc3n2)cc1 (stereo unspecified)

["17.2% (inactive)", "9.88% (active)"]

Values from PubChem BioAssay (NCI)
